# Tested on: Epidermal growth factor receptor (Homo sapiens), P00533 [L861Q]
# Sequence (P00533 whole entry L861Q): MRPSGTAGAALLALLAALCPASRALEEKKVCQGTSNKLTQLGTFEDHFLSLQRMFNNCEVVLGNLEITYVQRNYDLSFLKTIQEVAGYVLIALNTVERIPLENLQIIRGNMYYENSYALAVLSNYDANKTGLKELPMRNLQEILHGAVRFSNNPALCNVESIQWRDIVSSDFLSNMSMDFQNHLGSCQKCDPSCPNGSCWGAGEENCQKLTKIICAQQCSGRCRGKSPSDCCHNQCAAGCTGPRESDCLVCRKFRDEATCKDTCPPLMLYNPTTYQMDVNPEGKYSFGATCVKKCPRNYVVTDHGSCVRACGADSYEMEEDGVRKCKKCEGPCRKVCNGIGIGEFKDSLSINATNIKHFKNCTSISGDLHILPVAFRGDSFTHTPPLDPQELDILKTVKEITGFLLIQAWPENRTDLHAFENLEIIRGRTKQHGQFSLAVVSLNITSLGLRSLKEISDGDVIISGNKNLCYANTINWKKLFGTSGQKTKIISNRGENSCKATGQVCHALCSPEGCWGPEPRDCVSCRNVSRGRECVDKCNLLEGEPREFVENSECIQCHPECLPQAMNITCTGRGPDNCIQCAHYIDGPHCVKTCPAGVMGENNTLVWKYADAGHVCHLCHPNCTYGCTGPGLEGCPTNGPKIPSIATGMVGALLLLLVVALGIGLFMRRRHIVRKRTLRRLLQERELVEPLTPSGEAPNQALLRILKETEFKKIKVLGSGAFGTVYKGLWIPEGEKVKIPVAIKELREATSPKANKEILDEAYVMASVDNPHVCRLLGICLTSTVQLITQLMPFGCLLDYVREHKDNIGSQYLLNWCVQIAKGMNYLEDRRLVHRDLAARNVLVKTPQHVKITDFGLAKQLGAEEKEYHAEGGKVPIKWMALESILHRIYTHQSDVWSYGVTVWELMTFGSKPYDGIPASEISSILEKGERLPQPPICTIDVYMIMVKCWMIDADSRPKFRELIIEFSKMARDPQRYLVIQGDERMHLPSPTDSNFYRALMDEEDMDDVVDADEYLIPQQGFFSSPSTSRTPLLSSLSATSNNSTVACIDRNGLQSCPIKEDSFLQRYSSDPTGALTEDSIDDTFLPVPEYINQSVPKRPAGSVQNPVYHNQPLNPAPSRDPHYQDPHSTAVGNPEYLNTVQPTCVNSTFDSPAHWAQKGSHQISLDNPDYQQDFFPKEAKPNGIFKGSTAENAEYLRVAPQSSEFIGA
# Assay Setup: at 0.1 µM
Recorded measurements of inhibition, one per entry

// below: answered compounds
{"Structure": "CCc1cccc(NC(=O)Nc2ccc(Oc3ccc4nc(NC(=O)OC)[nH]c4c3)cc2)c1", "Quantity Kind": "inhibition", "Test Value": "0.96%"}
{"Structure": "COC(=O)Nc1nc2cc(Oc3cccc(NC(=O)Nc4cc(C(F)(F)F)ccc4F)c3)ccc2[nH]1", "Quantity Kind": "inhibition", "Test Value": "-1.86%"}
{"Structure": "CCn1c(-c2nonc2N)nc2cncc(C(=O)N3CCNCC3)c21", "Quantity Kind": "inhibition", "Test Value": "3.22%"}
{"Structure": "CS(=O)(=O)CCNCc1ccc(-c2ccc3ncnc(Nc4ccc(OCc5ccccc5)c(Cl)c4)c3c2)o1", "Quantity Kind": "inhibition", "Test Value": "52.9%"}

# return recorded inhibition for entry CN(C)c1cc2c(Nc3ccc4nc(Cc5ccccc5)[nH]c4c3)ncnc2cn1
27.3%

----------
# System Name: cGMP-dependent protein kinase 1 (Homo sapiens)
# Assay Setup: at 0.1 µM
# Description: GSK_PKIS: PRKG1 mean inhibition at 0.1 uM [Nanosyn]
Quantity Kind: inhibition (%)
Kindly answer with a numeric value in %, unit omitted.

// below: answered compounds
{"Compound": "CS(=O)(=O)Nc1ccc(N/C=C2\\C(=O)Nc3ccccc32)cc1", "System Name": "cGMP-dependent protein kinase 1 (Homo sapiens)", "inhibition [%]": -1.67}
{"Compound": "COc1ccc2cc(-c3c(-c4ccncc4)nc(-c4ccc([S+](C)[O-])cc4)n3C)ccc2c1 (stereo not given)", "System Name": "cGMP-dependent protein kinase 1 (Homo sapiens)", "inhibition [%]": 1.31}
{"Compound": "CS(=O)(=O)CCNCc1ccc(-c2ccc3ncnc(Nc4ccc(OCc5cccc(F)c5)c(C(F)(F)F)c4)c3c2)o1", "System Name": "cGMP-dependent protein kinase 1 (Homo sapiens)", "inhibition [%]": 2.84}
{"Compound": "N#Cc1c(NC(=O)c2cccc3ccccc23)sc2c1CCCC2", "System Name": "cGMP-dependent protein kinase 1 (Homo sapiens)", "inhibition [%]": 3.4}
{"Compound": "CCc1cccc(NC(=O)Nc2ccc(Oc3ccc4nc(NC(=O)OC)[nH]c4c3)cc2)c1", "System Name": "cGMP-dependent protein kinase 1 (Homo sapiens)", "inhibition [%]": -0.2}

# return recorded inhibition for entry COC(=O)Nc1nc2cc(Oc3ccc(NC(=O)Nc4cccc(C(=O)O)c4)cc3)ccc2[nH]1
-0.28

# return recorded inhibition for entry COC(=O)Nc1nc2cc(Oc3cccc(NC(=O)Nc4cc(C(F)(F)F)ccc4F)c3)ccc2[nH]1
2.33

# return recorded inhibition for entry Nc1ncnc2occ(-c3ccc(NC(=O)Nc4cc(C(F)(F)F)cc(C(F)(F)F)c4)cc3)c12
1.23

# return recorded inhibition for entry O=C(Nc1n[nH]c2nc(-c3ccco3)c(Br)cc12)C1CC1
2.39

# return recorded inhibition for entry Cc1nn(C)c2cc(N(C)c3ccnc(Nc4cccc(S(N)(=O)=O)c4)n3)ccc12
4.25

# return recorded inhibition for entry CC1=C(C(=O)Nc2ccc3[nH]ncc3c2)C(c2ccc(F)cc2)NC(=O)N1 (stereo not given)
4.58

# return recorded inhibition for entry CC(=O)Nc1cccc(C#Cc2cncnc2Nc2ccc(OCc3cccc(F)c3)c(Cl)c2)n1
2.8

# return recorded inhibition for entry O=C1NC(=O)C(N2CCc3ccccc32)=C1c1ccc(Cl)cc1
3.3

# return recorded inhibition for entry COc1cc(C=NNc2ncnc3c2cnn3-c2ccccc2)ccc1O
1.67

# return recorded inhibition for entry Cn1cc(C=C2C(=O)Nc3cccnc32)c2ccccc21
1.8

# return recorded inhibition for entry COc1ccc(COc2ccc(Cc3cnc(N)nc3N)cc2OC)cc1
4.15

# return recorded inhibition for entry NS(=O)(=O)c1cccc(-c2ccc3c(NC(=O)C4CC4)n[nH]c3c2)c1
0.48

# return recorded inhibition for entry NC(=O)c1cccc(Nc2nccc(Nc3cccc4[nH]ncc34)n2)c1
-0.53

# return recorded inhibition for entry CCN1CCC(CC(=O)Nc2n[nH]c3nc(-c4cccs4)c(Br)cc23)CC1
-1.47

# return recorded inhibition for entry Cc1ccc(C(=O)NC2CCCCC2)cc1-c1ccc(C(=O)NCC2CC2)cc1
4.55

Cited source for all entries: ChEMBL document CHEMBL1961873
